- Test system: MS2 coat protein
- assayMethodText: apparent KD of MS2 coat protein; designed switch direction (-1 OFF switch, 1 ON switch): -1; higher = weaker reporter binding
- measurementConditions: input ligand: none
apparent KD of MS2 coat protein values, listed per item

{"orderedResidues": "UUGAAUUAGCAGGAUAUGGGAGUCGAUAGACACCCAGAAGGGCUAACAUGAGGAUCACCCAUGUGUCCUAUCAA [Mod of Eli 22 - Jieux - Exclusion 6] (Eterna round: R97, puzzle: Exclusion 6)", "apparent KD of MS2 coat protein (nM)": 33.9}
{"orderedResidues": "AGUUAUGCAGGAUAUUGCGGGCCAGACAUGAGGAUCACCCAUGUGUGGGAGUCCUGCGCGCGAGAAGGGCAGACAA [EX5 B.22] (Eterna round: R97, puzzle: Exclusion 5)", "apparent KD of MS2 coat protein (nM)": 20.4}
{"orderedResidues": "AGACGGUGAGGAUAUAGACGCAAUCACAUGAGGAUCACCCAUGUGACACGUGAUGGCUGGUUAGAAGGCGCGAAUC [Eternabot (L1) Solution 37] (Eterna round: R97, puzzle: Exclusion 5)", "apparent KD of MS2 coat protein (nM)": 17.4}
{"orderedResidues": "AAAACAAGCAUAAGAUCCCACAUGAGGAUCACCCAUGUGCUCGUCUUAUAAAAGGUUUCGACGAAAACGUCGAGACC [Eli 91 v30] (Eterna round: R97, puzzle: Sensor, turn-off variant 1)", "apparent KD of MS2 coat protein (nM)": 29.6}
{"orderedResidues": "UCCGCGCGCUUGCGCGCGGACAUGAGGAUCACCCAUGUCGGGCUUUUUGCUCGUUUUGUUGCGCGCGUUCGCGCGCG [Revision to Olbi_3 by Sunset] (Eterna round: R97, puzzle: Sensor, turn-off variant 1)", "apparent KD of MS2 coat protein (nM)": 101}
